The origin of these recorded values is patent EP4778933A1.

Tested on: KRAS G13D-mediated ERK phosphorylation
Assay: Inhibition of KRAS G13D-mediated ERK phosphorylation in HCT116 cells
Type: cell-based
Details: Homo sapiens, HCT-116, 3 h incubation, read-out: Inhibitory activity on ERK phosphorylation (IC50) HCT116-G13D
Measure Name: pIC50
Give bare numbers, as −log10 of the molar value.

| Compound | pIC50 |
| --- | --- |
| CC1(O)COCCN(c2nc(OCC34CCCN3C(c3cc(F)c(F)c(F)c3)CC4)nc3c(F)c(-c4ccc(F)c5sc(N)c(C#N)c45)c(Cl)cc23)C1 (single isomer, unassigned) | 7.20 |
| CC1(O)COCCN(c2nc(OCC34CCCN3C(c3cc(F)c(F)c(F)c3)CC4)nc3c(F)c(-c4cccc5sc(N)c(C#N)c45)c(Cl)cc23)C1 (single isomer, unassigned) | 7.35 |

Please examine the following record next.
Q: Please give the measured pIC50 for this compound: CC1(O)COCCN(c2nc(OCC34CCCN3C(c3cc(F)c(F)c(F)c3)CC4)nc3c(F)c(-c4cccc5sc(N)c(C#N)c45)c(Br)cc23)C1 (stereo not drawn)
Ans: 7.03

* * *

I'd appreciate it if you could supply pIC50 values for the items below.
Tested on: RKN (KRAS G12V)
Test: 3D cell proliferation inhibition test (CellTiter-Glo 3D, 7 days), RKN
Assay type: cell-based
Settings: 168 h, read-out: Inhibitory activity on cell proliferation (IC50) RKN (KRAS G12V)
One number for each entry, as −log10 of the molar value.

| Compound | Target | pIC50 |
| --- | --- | --- |
| CC1(O)COCCN(c2nc(OCC34CCCN3C(c3cc(F)c(F)c(F)c3)CC4)nc3c(F)c(-c4cccc5sc(N)c(C#N)c45)c(Cl)cc23)C1 (single isomer, unassigned) [Example 21] | RKN (KRAS G12V) | 8.14 |
| CC1(O)COCCN(c2nc(OCC34CCCN3C(c3cc(F)c(F)c(F)c3)CC4)nc3c(F)c(-c4cccc5sc(N)c(C#N)c45)c(Br)cc23)C1 (single isomer, unassigned) [Example 26] | RKN (KRAS G12V) | 8.36 |

Please examine the following record next.
Q: Please give the measured pIC50 for this compound: CC1(O)COCCN(c2nc(OCC34CCCN3C(c3cc(F)c(F)c(F)c3)CC4)nc3c(F)c(-c4cccc5sc(N)c(C#N)c45)c(I)cc23)C1 (single isomer, unassigned) [Example 31]
Ans: 8.43

* * *

Experiment: In vivo pharmacokinetic test in mice
Conditions: female BALB/c mice, oral, single dose 30 mg/kg, plasma; 30 mg/kg
Measure Name: Cmax

Please review the entries below; each comes with its answer.
| Compound | Measure Name | Result |
| --- | --- | --- |
| CC1(O)COCCN(c2nc(OCC34CCCN3C(c3cc(F)c(F)c(F)c3)CC4)nc3c(F)c(-c4cccc5sc(N)c(C#N)c45)c(Cl)cc23)C1 (single isomer, unassigned) [Example 18] | Cmax | 2148 ng/mL |
| CC1(O)COCCN(c2nc(OCC34CCCN3C(c3cc(F)c(F)c(F)c3)CC4)nc3c(F)c(-c4cccc5sc(N)c(C#N)c45)c(Cl)cc23)C1 (single isomer, unassigned) [Example 21] | Cmax | 5218 ng/mL |
| CC1(O)COCCN(c2nc(OCC34CCCN3C(c3cc(F)c(F)c(F)c3)CC4)nc3c(F)c(-c4ccc(F)c5sc(N)c(C#N)c45)c(Cl)cc23)C1 (single isomer, unassigned) [Example 12] | Cmax | 5544 ng/mL |
| CC1(O)COCCN(c2nc(OCC34CCCN3C(c3cc(F)c(F)c(F)c3)CC4)nc3c(F)c(-c4cccc5sc(N)c(C#N)c45)c(I)cc23)C1 (single isomer, unassigned) [Example 31] | Cmax | 5124 ng/mL |

Please examine the following record next.
Q: Please give the measured Cmax for this compound: CC1(O)COCCN(c2nc(OCC34CCCN3C(c3cc(F)c(F)c(F)c3)CC4)nc3c(F)c(-c4ccc(F)c5sc(N)c(C#N)c45)c(Cl)cc23)C1 (single isomer, unassigned) [Example 9]
Ans: 1897 ng/mL
